# Target Or System: NF-kB p65/p50 heterodimer (RelA/NFKB1) (Homo sapiens, UniProt Q04206;P19838 Q04206:1-551,P19838:1-433)
# Sequence (Q04206 whole entry, chain 1 of 2): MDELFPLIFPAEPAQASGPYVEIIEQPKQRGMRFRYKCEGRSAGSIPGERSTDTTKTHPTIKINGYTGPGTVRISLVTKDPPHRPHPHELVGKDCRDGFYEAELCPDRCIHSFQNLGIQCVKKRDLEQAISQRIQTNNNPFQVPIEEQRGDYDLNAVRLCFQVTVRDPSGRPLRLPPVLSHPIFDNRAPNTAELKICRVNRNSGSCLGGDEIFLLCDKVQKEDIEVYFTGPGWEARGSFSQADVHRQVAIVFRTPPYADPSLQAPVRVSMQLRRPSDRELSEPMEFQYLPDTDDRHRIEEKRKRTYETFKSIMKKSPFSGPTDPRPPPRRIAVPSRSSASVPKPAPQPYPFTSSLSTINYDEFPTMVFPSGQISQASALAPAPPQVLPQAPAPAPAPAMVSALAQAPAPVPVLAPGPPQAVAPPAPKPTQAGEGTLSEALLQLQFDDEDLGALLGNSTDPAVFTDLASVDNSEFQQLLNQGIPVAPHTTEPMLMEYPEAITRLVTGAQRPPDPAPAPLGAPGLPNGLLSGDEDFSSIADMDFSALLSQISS
# Sequence (P19838 1-433, chain 2 of 2): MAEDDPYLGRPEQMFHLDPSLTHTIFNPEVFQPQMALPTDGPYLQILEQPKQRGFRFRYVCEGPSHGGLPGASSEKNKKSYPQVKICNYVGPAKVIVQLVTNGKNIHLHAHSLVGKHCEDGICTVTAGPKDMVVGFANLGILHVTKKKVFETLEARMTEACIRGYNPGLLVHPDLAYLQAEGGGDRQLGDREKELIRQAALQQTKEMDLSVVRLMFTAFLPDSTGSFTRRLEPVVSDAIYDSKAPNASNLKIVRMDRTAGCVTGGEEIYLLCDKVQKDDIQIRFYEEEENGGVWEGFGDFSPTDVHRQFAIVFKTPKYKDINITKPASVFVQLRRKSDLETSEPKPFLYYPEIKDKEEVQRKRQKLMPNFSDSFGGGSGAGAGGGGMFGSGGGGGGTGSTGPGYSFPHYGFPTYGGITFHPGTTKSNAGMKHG
# Assay Text: EMSA; competition vs 32P 113/114 probe
# Setup Conditions: protein: extract; tags: none; nuclear extract of LPS-stimulated THP-1 cells
So basically: is IC50 under 40 fold molar excess? Then true (1). Not under? Then false (0).

Binder	Assigned Class
decoy 309 M-T (dsDNA) DNA 1: CCTTGAAGGGATTTCCCTCC DNA 2: GGAGGGAAATCCCTTCAAGG	false (0)
decoy 279 E-Z A->C EVEN (dsDNA) DNA 1: TTGCGGACTTTCCAGGC DNA 2: GCCTGGAAAGTCCGCAA	false (0)
decoy 227 H-V (dsDNA) DNA 1: TCGGATTTCCTC DNA 2: GAGGAAATCCGA	false (0)
153/154 PO/H11 (dsDNA, strand 153 PO; strand 154 PS at the 11 3'-most linkages) DNA 1: AGTTGAGGACTTTCCAGGC DNA 2: GCCTGGAAAGTCCTCAACT	true (1)
153/154 H11/PO (dsDNA, strand 153 PS at the 11 3'-most linkages; strand 154 PO) DNA 1: AGTTGAGGACTTTCCAGGC DNA 2: GCCTGGAAAGTCCTCAACT	true (1)
153/154 H4/H4 (dsDNA, PS at the 4 3'-most linkages of each strand) DNA 1: AGTTGAGGACTTTCCAGGC DNA 2: GCCTGGAAAGTCCTCAACT	false (0)
153/154 H10/H10 (dsDNA, PS at the 10 3'-most linkages of each strand) DNA 1: AGTTGAGGACTTTCCAGGC DNA 2: GCCTGGAAAGTCCTCAACT	true (1)
decoy 129 D-V (dsDNA) DNA 1: TCGGGATTTCCTC DNA 2: GAGGAAATCCCGA	true (1)
decoy 151 D-Z (dsDNA) DNA 1: AGTTGAGGGATTTCCAGGC DNA 2: GCCTGGAAATCCCTCAACT	true (1)
decoy 281 E-Z EVEN (dsDNA) DNA 1: TTGAGGACTTTCCAGGC DNA 2: GCCTGGAAAGTCCTCAA	false (0)
153/154 PO (dsDNA, full phosphodiester, both strands) DNA 1: AGTTGAGGACTTTCCAGGC DNA 2: GCCTGGAAAGTCCTCAACT	false (0)
decoy 121 A-V (dsDNA) DNA 1: TCGGGACTTTCCTC DNA 2: GAGGAAAGTCCCGA	true (1)
153/154 H10/H8 (dsDNA, PS at the 10 (153) and 8 (154) 3'-most linkages) DNA 1: AGTTGAGGACTTTCCAGGC DNA 2: GCCTGGAAAGTCCTCAACT	true (1)
